The reported measurements were obtained from ChEMBL document CHEMBL4765297.

Reported Activity values are given for each entry in this list.
Test system: ScN2a
EXPERIMENT SUMMARY: Anti-prion activity against RML prion protein in mouse N2a cells assessed as Scrapie prion protein level at 1 uM in absence of proteinase K by Western blotting analysis relative to control
Type: cell-based
Provide the reading as a plain figure in %.

- SMI: "C/C(=N\\Nc1ccnc2cc(Cl)ccc12)c1ccc2c(c1)N(CCN1CCN(C)CC1)c1ccccc1S2"
  TGT: "ScN2a"
  QUANTITY: "Activity"
  NUMERIC VALUE: 55.9
- SMI: "CCOc1ccc(CNC(=O)CSc2c3c(nc4cc(Cl)ccc24)CCCC3)cc1"
  TGT: "ScN2a"
  QUANTITY: "Activity"
  NUMERIC VALUE: 110
- SMI: "C/C(=N\\Nc1ccnc2cc(Cl)ccc12)c1ccc2c(c1)N(CCN(C)C)c1ccccc1S2"
  TGT: "ScN2a"
  QUANTITY: "Activity"
  NUMERIC VALUE: 60.2
- SMI: "C/C(=N\\Nc1ccnc2cc(Cl)ccc12)c1ccc2c(c1)N(CCN1CCCCC1)c1ccccc1S2"
  TGT: "ScN2a"
  QUANTITY: "Activity"
  NUMERIC VALUE: 70.2
- SMI: "C/C(=N\\Nc1ccnc2cc(Cl)ccc12)c1ccc2c(c1)Nc1ccccc1S2"
  TGT: "ScN2a"
  QUANTITY: "Activity"
  NUMERIC VALUE: 55.7
- SMI: "C/C(=N\\Nc1ccnc2cc(Cl)ccc12)c1ccc2c(c1)N(CCN1CCOCC1)c1ccccc1S2"
  TGT: "ScN2a"
  QUANTITY: "Activity"
  NUMERIC VALUE: 95.3
- SMI: "Cn1c(CSc2ccnc3cc(Cl)ccc23)nnc1SCC(=O)N1CCN(c2ccccc2)CC1"
  TGT: "ScN2a"
  QUANTITY: "Activity"
  NUMERIC VALUE: 85.8
- SMI: "O=C(Nc1ccc(Oc2ccccc2)cc1)c1cc2cc3ccc(Cl)cc3nc2o1"
  TGT: "ScN2a"
  QUANTITY: "Activity"
  NUMERIC VALUE: 92.6

Now look at this entry.
Exam item: Read the entry "Cn1c(=O)c2cc(C(=O)N3CCC(Cc4ccccc4)CC3)sc2c2ccc(Cl)cc21" and write its reported Activity.
Marked response: 99.6

* * *

System: ScN2a
EXPERIMENT SUMMARY: Anti-prion activity against RML prion protein in mouse N2a cells assessed as Scrapie prion protein level at 1 uM in absence of proteinase K by Western blotting analysis relative to control
Format: cell-based
Label rule met when Activity < 80%; otherwise rule not met.

Solved entries:
- SMI: "COC(=O)c1ccc(COc2ccc(/C=N/Nc3ccnc4cc(Cl)ccc34)cc2OC)cc1"
  CATEGORY LABEL: "rule not met"
- SMI: "Cn1c(=O)c2cc(C(=O)Nc3ccc(Oc4ccccc4)cc3)sc2c2ccc(Cl)cc21"
  CATEGORY LABEL: "rule not met"
- SMI: "CCc1ccc(CNC(=O)CSc2c3c(nc4cc(Cl)ccc24)CCCC3)cc1"
  CATEGORY LABEL: "rule not met"
- SMI: "COc1ccc2nc(NC(=O)c3cc4c(=O)n(C)c5cc(Cl)ccc5c4s3)sc2c1"
  CATEGORY LABEL: "rule met"
- SMI: "C/C(=N\\Nc1ccnc2cc(Cl)ccc12)c1ccc2c(c1)N(CCCN(C)C)c1ccccc1S2"
  CATEGORY LABEL: "rule met"

# ---- query compound ----
Exam item: API: query returns whether the compound falls strictly under 80% in Activity. Query: "Cc1cc(/C=N/Nc2ccnc3cc(Cl)ccc23)c(C)cc1/C=N/Nc1ccnc2cc(Cl)ccc12"
Marked response: rule met
